molecular target: HiBit-BRM fusion protein (Homo sapiens, UniProt P51531); construct: expressed in transfected cells; test: HiBiT-BRM cell-based degradation assay (Nano-Glo HiBiT lytic detection, 24 h); details: HeLa cell line expressing HiBiT-BRM, read-out: BRM HiBit Degradation IC50
Sequence (P51531 whole entry, the tested form may be a part): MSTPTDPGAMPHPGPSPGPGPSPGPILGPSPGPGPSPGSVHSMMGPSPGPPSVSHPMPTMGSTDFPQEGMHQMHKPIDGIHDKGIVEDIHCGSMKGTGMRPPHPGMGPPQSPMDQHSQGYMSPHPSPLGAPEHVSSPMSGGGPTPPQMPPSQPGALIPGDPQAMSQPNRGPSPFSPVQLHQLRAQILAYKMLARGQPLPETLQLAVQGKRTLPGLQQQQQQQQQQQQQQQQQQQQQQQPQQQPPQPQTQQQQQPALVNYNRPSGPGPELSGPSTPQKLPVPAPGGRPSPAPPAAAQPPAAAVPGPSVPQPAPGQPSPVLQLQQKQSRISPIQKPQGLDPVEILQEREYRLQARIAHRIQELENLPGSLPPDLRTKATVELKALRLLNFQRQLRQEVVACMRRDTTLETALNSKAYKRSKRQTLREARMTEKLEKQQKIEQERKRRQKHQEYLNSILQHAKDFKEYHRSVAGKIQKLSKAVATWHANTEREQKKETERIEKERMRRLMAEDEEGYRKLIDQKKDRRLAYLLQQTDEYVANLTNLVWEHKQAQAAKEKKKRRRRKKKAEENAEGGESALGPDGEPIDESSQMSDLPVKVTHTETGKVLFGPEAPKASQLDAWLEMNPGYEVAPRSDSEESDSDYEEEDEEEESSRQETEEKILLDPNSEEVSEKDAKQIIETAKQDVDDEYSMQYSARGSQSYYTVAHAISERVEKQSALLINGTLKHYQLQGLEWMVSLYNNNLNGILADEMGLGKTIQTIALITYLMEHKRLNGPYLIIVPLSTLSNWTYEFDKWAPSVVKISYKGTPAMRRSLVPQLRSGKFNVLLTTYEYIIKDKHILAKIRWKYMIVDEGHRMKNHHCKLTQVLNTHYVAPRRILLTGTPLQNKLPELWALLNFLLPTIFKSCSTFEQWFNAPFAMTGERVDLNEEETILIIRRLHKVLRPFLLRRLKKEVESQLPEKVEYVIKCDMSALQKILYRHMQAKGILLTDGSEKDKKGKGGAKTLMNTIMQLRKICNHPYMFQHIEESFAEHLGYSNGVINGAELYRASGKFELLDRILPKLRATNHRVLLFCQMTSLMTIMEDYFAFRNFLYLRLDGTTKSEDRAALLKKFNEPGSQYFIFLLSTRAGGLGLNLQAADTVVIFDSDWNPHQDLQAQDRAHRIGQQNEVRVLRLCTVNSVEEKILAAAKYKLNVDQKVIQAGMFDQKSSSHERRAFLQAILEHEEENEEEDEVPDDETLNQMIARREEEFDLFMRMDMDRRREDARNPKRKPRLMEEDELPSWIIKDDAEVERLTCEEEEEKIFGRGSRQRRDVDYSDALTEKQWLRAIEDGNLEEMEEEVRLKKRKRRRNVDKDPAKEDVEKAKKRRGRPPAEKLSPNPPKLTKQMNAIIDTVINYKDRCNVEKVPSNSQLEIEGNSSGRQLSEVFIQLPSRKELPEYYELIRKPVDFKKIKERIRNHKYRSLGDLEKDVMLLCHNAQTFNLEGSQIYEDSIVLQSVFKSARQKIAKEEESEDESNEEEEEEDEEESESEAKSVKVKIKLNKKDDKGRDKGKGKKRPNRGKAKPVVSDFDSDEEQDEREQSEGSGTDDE
Listed here are compounds together with their documented DC50.

What does the record list as DC50 for Cc1ncsc1-c1ccc([C@H](C)NC(=O)[C@@H]2C[C@@H](O)CN2C(=O)[C@@H](c2cc(N3CC4(CC(c5cc6nnc(-c7ccccc7O)cc6n5C5(C)CC5)C4)C3)no2)C(C)C)cc1 ? < 10 nM

Returns the measured DC50 for the input compound. Input: C#Cc1ccc([C@H](C)NC(=O)[C@@H]2C[C@@H](O)CN2C(=O)C(c2cc(N3CC4(CC(c5cc6nnc(-c7ccccc7O)cc6n5C5CCC5)C4)C3)no2)C(C)C)cc1 (stereo partly drawn) < 10 nM

Name the reported DC50 value associated with the compound Cc1ncsc1-c1ccc([C@H](C)NC(=O)[C@@H]2C[C@@H](O)CN2C(=O)[C@@H](c2cc(N3CCC(N4CC(c5cc6nnc(-c7ccccc7O)cc6n5C)C4)CC3)no2)C(C)C)cc1 < 10 nM

====

Measured DC50, listed per entry.
molecular target: HiBit-BRM fusion protein (Homo sapiens); construct: expressed in transfected cells; assay: HiBiT-BRM cell-based degradation assay (Nano-Glo HiBiT lytic detection, 24 h); conditions: HeLa cell line expressing HiBiT-BRM, read-out: BRM HiBit Degradation IC50

Lab note: need DC50 for Cc1ncsc1-c1ccc([C@H](C)NC(=O)[C@@H]2C[C@@H](O)CN2C(=O)[C@@H](c2cc(N3CC4(CC(c5cc6nnc(-c7ccccc7O)cc6n5C)C4)C3)no2)C(C)C)cc1 [Compound 67] on HiBit-BRM fusion protein (Homo sapiens), anyone have it? < 10 nM

Report DC50 for Cc1ncsc1-c1ccc([C@H](C)NC(=O)[C@@H]2C[C@@H](O)CN2C(=O)[C@@H](c2cc(OCCCN3CC(c4cc5nnc(-c6ccccc6O)cc5[nH]4)C3)no2)C(C)C)cc1 [Compound 3, formic acid] tested on HiBit-BRM fusion protein (Homo sapiens). > 1000 nM

What value of DC50 on HiBit-BRM fusion protein (Homo sapiens) does Cc1ncsc1-c1ccc([C@H](C)NC(=O)[C@@H]2C[C@@H](O)CN2C(=O)[C@@H](c2cc(N3CCC4(CC3)CC(c3cc5nnc(-c6ccccc6O)cc5n3C)C4)no2)C(C)C)cc1 [Compound 113] have? < 10 nM

HiBit-BRM fusion protein (Homo sapiens) / DC50 / Cc1ncsc1-c1ccc([C@H](C)NC(=O)[C@@H]2C[C@@H](O)CN2C(=O)[C@@H](c2cc(-c3cnc(N4CC[C@@H](c5cc6nnc(-c7ccccc7O)cc6n5C5(C)CC5)C4)nc3)no2)C(C)C)cc1 [Compound 103] : value? < 10 nM

Continuing:
Observed DC50 on HiBit-BRM fusion protein (Homo sapiens) for Cc1ncsc1-c1ccc([C@H](C)NC(=O)[C@@H]2C[C@@H](O)CN2C(=O)[C@@H](c2cc(N3CC[C@H](c4cc5nnc(-c6ccccc6O)cc5n4C4(C)CC4)C3)no2)C(C)C)cc1 [Compound 80] , please. > 10 nM

====

target: HiBit-BRG1 fusion protein (Homo sapiens); construct: expressed in transfected cells; test: HiBiT-BRG1 cell-based degradation assay (Nano-Glo HiBiT lytic detection, 24 h); settings: HeLa cell line expressing HiBit-BRG1 and LgBit, read-out: BRG1 HiBit Degradation Maximum (%)
Sequence (P51532 whole entry, the tested form may be a part): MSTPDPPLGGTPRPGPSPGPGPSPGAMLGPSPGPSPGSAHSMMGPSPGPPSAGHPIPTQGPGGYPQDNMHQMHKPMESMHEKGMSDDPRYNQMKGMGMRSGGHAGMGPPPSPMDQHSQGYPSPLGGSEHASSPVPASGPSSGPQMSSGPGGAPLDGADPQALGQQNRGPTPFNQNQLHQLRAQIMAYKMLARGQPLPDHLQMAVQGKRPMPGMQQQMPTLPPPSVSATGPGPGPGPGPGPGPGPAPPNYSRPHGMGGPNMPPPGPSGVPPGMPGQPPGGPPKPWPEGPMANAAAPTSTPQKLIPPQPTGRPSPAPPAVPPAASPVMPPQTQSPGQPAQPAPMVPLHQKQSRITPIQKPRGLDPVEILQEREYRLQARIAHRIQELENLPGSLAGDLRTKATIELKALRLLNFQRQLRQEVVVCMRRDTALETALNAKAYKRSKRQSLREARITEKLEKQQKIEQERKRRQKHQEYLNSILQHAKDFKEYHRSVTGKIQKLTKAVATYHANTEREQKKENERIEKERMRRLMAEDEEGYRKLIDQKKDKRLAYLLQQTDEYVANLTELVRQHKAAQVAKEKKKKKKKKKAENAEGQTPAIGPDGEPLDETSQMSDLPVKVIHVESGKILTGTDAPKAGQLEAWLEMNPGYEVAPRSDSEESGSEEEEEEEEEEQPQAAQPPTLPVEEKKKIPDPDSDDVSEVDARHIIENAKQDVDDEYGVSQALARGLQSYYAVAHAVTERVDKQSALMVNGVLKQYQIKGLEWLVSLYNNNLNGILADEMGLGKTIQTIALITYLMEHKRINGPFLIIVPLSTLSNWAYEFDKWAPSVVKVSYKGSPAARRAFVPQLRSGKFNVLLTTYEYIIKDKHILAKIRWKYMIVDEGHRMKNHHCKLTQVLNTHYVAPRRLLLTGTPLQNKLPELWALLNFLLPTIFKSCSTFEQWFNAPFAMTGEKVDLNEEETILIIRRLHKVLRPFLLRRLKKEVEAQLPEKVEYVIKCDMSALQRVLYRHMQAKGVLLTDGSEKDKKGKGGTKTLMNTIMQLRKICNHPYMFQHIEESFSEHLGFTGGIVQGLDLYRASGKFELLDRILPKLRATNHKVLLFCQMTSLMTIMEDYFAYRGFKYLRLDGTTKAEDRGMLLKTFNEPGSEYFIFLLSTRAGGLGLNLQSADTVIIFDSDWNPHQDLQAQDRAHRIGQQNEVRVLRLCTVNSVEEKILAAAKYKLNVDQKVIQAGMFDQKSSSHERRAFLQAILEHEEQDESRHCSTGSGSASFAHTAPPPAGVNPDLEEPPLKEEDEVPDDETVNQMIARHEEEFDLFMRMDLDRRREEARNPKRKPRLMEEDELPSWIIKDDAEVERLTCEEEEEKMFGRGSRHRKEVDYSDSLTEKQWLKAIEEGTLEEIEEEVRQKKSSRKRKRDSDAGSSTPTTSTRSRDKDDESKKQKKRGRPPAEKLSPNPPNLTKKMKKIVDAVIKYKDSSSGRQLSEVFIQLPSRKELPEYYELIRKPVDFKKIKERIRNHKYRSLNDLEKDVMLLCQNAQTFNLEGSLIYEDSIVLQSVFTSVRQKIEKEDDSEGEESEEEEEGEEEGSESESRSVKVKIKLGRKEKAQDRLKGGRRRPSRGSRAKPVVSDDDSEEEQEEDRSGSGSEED
PROPERTY_NAME: Dmax

Find the recorded Dmax belonging to CC(C)C(C(=O)N1C[C@H](O)C[C@H]1C(=O)NC1CC1)c1cc(N2CC3(CC(c4cc5nnc(-c6ccccc6O)cc5n4C4CCC4)C3)C2)no1 (stereo partly drawn) and report it. < 50%

Record request: Dmax value, item Cc1ncsc1-c1ccc([C@H](C)NC(=O)[C@@H]2C[C@@H](O)CN2C(=O)[C@@H](c2cc(-c3ccnc(N4CC[C@H](c5cc6nnc(-c7ccccc7O)cc6n5C5CC5)C4)n3)no2)C(C)C)cc1 < 50%

Param item = CCn1c(C2CCN(c3ncc(-c4cc([C@@H](C(=O)N5C[C@H](O)C[C@H]5C(=O)N[C@@H](C)c5ccc(-c6scnc6C)cc5)C(C)C)on4)cn3)CC2)cc2nnc(-c3ccccc3O)cc21 ; retrieve measured Dmax. < 50%

State the recorded Dmax for this entry: Cc1ncsc1-c1ccc([C@H](C)NC(=O)[C@@H]2C[C@@H](O)CN2C(=O)[C@@H](c2cc(-c3ccnc(N4CC[C@@H](c5cc6nnc(-c7ccccc7O)cc6n5C5CC5)C4)c3)no2)C(C)C)cc1 > 50%

// query Dmax value for entry Cc1ncsc1-c1ccc([C@H](C)NC(=O)[C@@H]2C[C@@H](O)CN2C(=O)[C@@H](c2cc(OCCN3CCC(O)(c4cc5nnc(-c6ccccc6O)cc5n4C)CC3)no2)C(C)C)cc1 > 75%

Next:
Returns the measured Dmax for the input molecule. Input: Cc1ncsc1-c1ccc([C@H](C)NC(=O)[C@@H]2C[C@@H](O)CN2C(=O)[C@@H](c2cc(OCCCN3CC(c4cc5nnc(-c6ccccc6O)cc5n4C)C3)no2)C(C)C)cc1 < 50%

Reported Dmax, molecule CCn1c(C2CCN(c3ncc(-c4cc([C@H](C(=O)N5C[C@H](O)C[C@H]5C(=O)N[C@@H](C)c5ccc(-c6scnc6C)cc5)C(C)C)on4)cn3)CC2)cc2nnc(-c3ccccc3O)cc21 : ____ > 50%

Name the reported Dmax value associated with the molecule Cc1cc(-c2cc([C@H](C(=O)N3C[C@H](O)C[C@H]3C(=O)N[C@@H](C)c3ccc(-c4scnc4C)cc3)C(C)C)on2)cnc1N1CC[C@H](c2cc3nnc(-c4ccccc4O)cc3n2C2CC2)C1 (single isomer, unassigned) < 50%

So what does the record say about Dmax for Cc1ncsc1-c1ccc(CNC(=O)[C@@H]2C[C@@H](O)CN2C(=O)[C@@H](c2cc(-c3cnc(N4CC[C@@H](c5cc6nnc(-c7ccccc7O)cc6n5C5CC5)C4)nc3)no2)C(C)C)cc1 ? > 50%

====

target: HiBit-BRG1 fusion protein (Homo sapiens); construct: expressed in transfected cells; test: HiBiT-BRG1 cell-based degradation assay (Nano-Glo HiBiT lytic detection, 24 h); settings: HeLa cell line expressing HiBit-BRG1 and LgBit, read-out: BRMG1 HiBit Degradation IC50
PROPERTY_NAME: DC50

Recall the recorded DC50 for Cc1ncsc1-c1ccc([C@H](C)NC(=O)[C@@H]2C[C@@H](O)CN2C(=O)[C@@H](c2cc(N3CC4(CCC(c5cc6nnc(-c7ccccc7O)cc6n5C5CC5)CC4)C3)no2)C(C)C)cc1 [Compound 87] with HiBit-BRG1 fusion protein (Homo sapiens) and state it. < 0.01 µM

Return DC50 measured with HiBit-BRG1 fusion protein (Homo sapiens) given this compound: Cc1ncsc1-c1ccc([C@H](C)NC(=O)[C@@H]2C[C@@H](O)CN2C(=O)[C@@H](c2cc(N3CC[C@@H](c4cc5nnc(-c6ccccc6O)cc5n4C4(C)CC4)C3)no2)C(C)C)cc1 [Compound 81] < 0.01 µM

Query DC50 on HiBit-BRG1 fusion protein (Homo sapiens) for Cc1ncsc1-c1ccc([C@H](C)NC(=O)[C@@H]2C[C@@H](O)CN2C(=O)[C@@H](c2cc(N3CC[C@H](c4cc5nnc(-c6ccccc6O)cc5n4C4CC4)C3)no2)C(C)C)cc1 [Compound 99] > 0.01 µM

More entries:
Quick check: DC50 on HiBit-BRG1 fusion protein (Homo sapiens), item Cc1ncsc1-c1ccc([C@H](C)NC(=O)[C@@H]2C[C@@H](O)CN2C(=O)[C@H](C(C)C)n2cc(-c3cnc(N4CC[C@H](c5cc6nnc(-c7ccccc7O)cc6n5C5CC5)C4)nc3)nn2)cc1 [Compound 74] ? < 0.01 µM

====

biological target: HiBit-BRG1 fusion protein (Homo sapiens); construct: expressed in transfected cells; assay: HiBiT-BRG1 cell-based degradation assay (Nano-Glo HiBiT lytic detection, 24 h); details: HeLa cell line expressing HiBit-BRG1 and LgBit, read-out: BRMG1 HiBit Degradation IC50
PROPERTY_NAME: DC50

Known results for compounds:
Lab request: please report DC50 under test system HiBit-BRG1 fusion protein (Homo sapiens) for Cc1ncsc1-c1ccc([C@H](C)NC(=O)[C@@H]2C[C@@H](O)CN2C(=O)[C@@H](c2cc(N3CCC(CN4CC(c5cc6nnc(-c7ccccc7O)cc6[nH]5)C4)CC3)no2)C(C)C)cc1 [Compound 4] > 100 nM

Form entry - test system: HiBit-BRG1 fusion protein (Homo sapiens); read-out: DC50; compound: Cc1ncsc1-c1ccc([C@H](C)NC(=O)[C@@H]2C[C@@H](O)CN2C(=O)[C@@H](c2cc(-c3ccnc(N4CC[C@@H](c5cc6nnc(-c7ccccc7O)cc6n5C5CC5)C4)c3)no2)C(C)C)cc1 [Compound 82] > 10 nM

# value lookup — system HiBit-BRG1 fusion protein (Homo sapiens), readout DC50, item Cc1ncsc1-c1ccc([C@H](C)NC(=O)[C@@H]2C[C@@H](O)CN2C(=O)[C@@H](c2cc(OCCN3CC(c4cc5nnc(-c6ccccc6O)cc5[nH]4)C3)no2)C(C)C)cc1 [Compound 1] > 100 nM

New cases:
Request body: readout DC50, system HiBit-BRG1 fusion protein (Homo sapiens), query Cc1ncsc1-c1ccc([C@H](C)NC(=O)[C@@H]2C[C@@H](O)CN2C(=O)[C@@H](c2cc(OCCN3CCC(c4cc5nnc(-c6ccccc6O)cc5[nH]4)CC3)no2)C(C)C)cc1 [Compound 17] . Return the value. > 10 nM

Field: DC50 (HiBit-BRG1 fusion protein (Homo sapiens)). Entry: Cc1ncsc1-c1ccc([C@H](C)NC(=O)[C@@H]2C[C@@H](O)CN2C(=O)[C@@H](c2cc(-c3cnc(N4CC[C@H](c5cc6nnc(-c7cc(F)cc(Cl)c7O)cc6n5C5CC5)C4)nc3)no2)C(C)C)cc1 [Compound 73] > 10 nM
